# Tested on: human SMAD7 mRNA
# test: Dose-dependent inhibition of human SMAD7 mRNA expression in Hep3B cells (Example 3, Study 1 and 2)
# Type: cell-based
# experimental_parameters: 20000.0 nM, electroporation, approximately 16 hours, Study 2
Strand notation (5' to 3'): a small letter for the sugar, then the base; units joined by * are phosphorothioate-linked, units joined directly phosphodiester-linked; [ ] holds rarer units or linkages, { } end groups; capitals alone tell only the bases. e = 2'-O-(2-methoxyethyl) (MOE); k = constrained ethyl (cEt); [5mC] = 5-methylcytosine; d = 2'-deoxy (DNA)
metric_name: % inhibition of SMAD7 mRNA expression (%)
The figure you give is taken to be in %; do not add the unit.

For the substance shown here, 799722 (antisense kG*k[5mC]*kA*dG*dA*dG*dT*dG*dA*dG*dA*dA*d[5mC]*kA*kA*kG) [compound 799722] , give the reported % inhibition of SMAD7 mRNA expression.
82

Query: % inhibition of SMAD7 mRNA expression; subject: 799496 (antisense kG*kG*kG*dT*dG*dA*dG*dG*dT*dG*dG*d[5mC]*dT*kG*k[5mC]*kG) [compound 799496]
69

Return reported % inhibition of SMAD7 mRNA expression; argument: 830095 (kT*kG*kA*dG*dT*dA*dA*dA*d[5mC]*dA*dA*dT*dA*k[5mC]*k[5mC]*k[5mC]; antisense) [compound 830095]
60

Look up % inhibition of SMAD7 mRNA expression: 830180 (antisense k[5mC]*kG*kT*dG*dT*dA*d[5mC]*d[5mC]*d[5mC]*dA*dG*d[5mC]*dT*kG*k[5mC]*k[5mC]) [compound 830180]
64

Which measured % inhibition of SMAD7 mRNA expression value corresponds to 771576 (antisense eG*eG*eG*e[5mC]*eA*dG*dG*dA*dG*dA*dG*dA*d[5mC]*dA*d[5mC]*e[5mC]*eG*e[5mC]*eT*eT) [compound 771576] ?
22

Suppose we examine the substance 790616 (k[5mC]*kT*kA*dA*dA*dT*dT*dT*d[5mC]*d[5mC]*dA*dA*dT*kG*kA*kG; antisense) [compound 790616] ; what % inhibition of SMAD7 mRNA expression value has been reported?
65

What value of % inhibition of SMAD7 mRNA expression has been reported for the following substance? 830067 (kG*kA*kA*dA*dT*dG*dG*dT*dG*d[5mC]*dT*d[5mC]*dT*kG*k[5mC]*k[5mC]; antisense) [compound 830067]
88

Entry 829980 (kT*kT*kG*dA*dT*dA*dT*dT*dT*dA*dG*d[5mC]*dT*kG*kT*k[5mC]; antisense) [compound 829980] has what % inhibition of SMAD7 mRNA expression?
92

Please give the measured % inhibition of SMAD7 mRNA expression for this substance: 830208 (kA*kA*kG*dG*dT*dG*dA*d[5mC]*dT*d[5mC]*dA*dT*d[5mC]*kA*kG*kG; antisense) [compound 830208]
90

Recorded % inhibition of SMAD7 mRNA expression of 799921 (antisense k[5mC]*kT*kA*dA*dT*dT*dA*dG*dT*dG*dA*d[5mC]*dT*kG*kT*kG) [compound 799921] , please.
58

Item 799534 (kG*kA*kG*dA*dA*dT*dG*dA*dA*dG*dT*d[5mC]*d[5mC]*kA*kG*kA; antisense) [compound 799534] has what recorded % inhibition of SMAD7 mRNA expression?
86

// lookup % inhibition of SMAD7 mRNA expression for 799410 (antisense kT*k[5mC]*kT*dG*dT*dT*dT*dA*d[5mC]*dA*d[5mC]*dA*d[5mC]*kA*kT*kT) [compound 799410]
74

GET /values?readout=% inhibition of SMAD7 mRNA expression&item= 790488 (kT*kT*k[5mC]*d[5mC]*dG*dA*dG*dG*dA*dA*dT*dG*d[5mC]*k[5mC]*kT*kG; antisense) [compound 790488]
67

Recorded % inhibition of SMAD7 mRNA expression for 799089 (antisense kA*kG*k[5mC]*dA*dA*dT*dA*d[5mC]*dT*dG*dT*dG*dA*kG*kG*kG) [compound 799089] , please?
76

# % inhibition of SMAD7 mRNA expression lookup, item 799070 (antisense kA*kG*kG*dG*dA*dA*dT*dA*dA*dG*dA*d[5mC]*dA*kA*kG*kG) [compound 799070]
60

Entry under review: 830037 (antisense CTATTGGCTGATCTGG; 3-10-3 cEt gapmer, further chemistry not given here) [compound 830037] . Reported % inhibition of SMAD7 mRNA expression?
87

What % inhibition of SMAD7 mRNA expression value was documented for this substance, 799663 (antisense kG*k[5mC]*kA*d[5mC]*dA*dG*d[5mC]*d[5mC]*dA*dA*dG*dA*dG*kA*kT*kG) [compound 799663] ?
89

Fill in: % inhibition of SMAD7 mRNA expression of 800031 (kA*kG*kA*dA*dA*d[5mC]*dA*d[5mC]*dA*dG*dT*dT*d[5mC]*k[5mC]*k[5mC]*kT; antisense) [compound 800031] is ___
69

Return reported % inhibition of SMAD7 mRNA expression; argument: 799668 (antisense kG*kA*k[5mC]*dA*dG*dA*dT*dG*d[5mC]*d[5mC]*dA*dG*d[5mC]*kA*kA*kG) [compound 799668]
72

Please look up its % inhibition of SMAD7 mRNA expression: 799671 (antisense kA*kG*kG*dT*dA*dT*dT*dT*dT*dT*dG*dA*dA*kG*kG*k[5mC]) [compound 799671]
74

Can you share its % inhibition of SMAD7 mRNA expression? I mean this substance: 799540 (kA*kG*k[5mC]*dT*dG*dA*dA*dG*d[5mC]*d[5mC]*d[5mC]*d[5mC]*d[5mC]*k[5mC]*kA*kA; antisense) [compound 799540]
73

% inhibition of SMAD7 mRNA expression for 799980 (k[5mC]*k[5mC]*kA*dA*d[5mC]*dG*dG*dT*dT*dG*d[5mC]*d[5mC]*dT*k[5mC]*kA*kT; antisense) [compound 799980] ?
61

For 798686 (antisense kG*kA*kG*dG*dA*dG*dG*d[5mC]*dG*dA*dG*dG*dA*kG*kA*kA) [compound 798686] , what is its reported % inhibition of SMAD7 mRNA expression?
33

Would you kindly share the measured % inhibition of SMAD7 mRNA expression for 799904 (antisense kA*k[5mC]*kT*d[5mC]*dA*dG*dA*dG*d[5mC]*dA*dG*d[5mC]*dT*k[5mC]*kT*k[5mC]) [compound 799904] ?
62

Requested read-out: % inhibition of SMAD7 mRNA expression. Entry: 829864 (antisense kG*kG*kG*dT*dA*dA*d[5mC]*dT*dG*d[5mC]*dT*dG*d[5mC]*kG*kG*kT) [compound 829864]
76

Just for reference, patent US10517889B2 is where these values come from.
